# measured on: SMARCA4 (Homo sapiens, UniProt P51532)
# Construct: SMARCA2/SMARCA4 protein degradation selectivity in MV4-11 cells; endogenous in cells; host or cells: MV4-11
# Sequence (P51532 whole entry): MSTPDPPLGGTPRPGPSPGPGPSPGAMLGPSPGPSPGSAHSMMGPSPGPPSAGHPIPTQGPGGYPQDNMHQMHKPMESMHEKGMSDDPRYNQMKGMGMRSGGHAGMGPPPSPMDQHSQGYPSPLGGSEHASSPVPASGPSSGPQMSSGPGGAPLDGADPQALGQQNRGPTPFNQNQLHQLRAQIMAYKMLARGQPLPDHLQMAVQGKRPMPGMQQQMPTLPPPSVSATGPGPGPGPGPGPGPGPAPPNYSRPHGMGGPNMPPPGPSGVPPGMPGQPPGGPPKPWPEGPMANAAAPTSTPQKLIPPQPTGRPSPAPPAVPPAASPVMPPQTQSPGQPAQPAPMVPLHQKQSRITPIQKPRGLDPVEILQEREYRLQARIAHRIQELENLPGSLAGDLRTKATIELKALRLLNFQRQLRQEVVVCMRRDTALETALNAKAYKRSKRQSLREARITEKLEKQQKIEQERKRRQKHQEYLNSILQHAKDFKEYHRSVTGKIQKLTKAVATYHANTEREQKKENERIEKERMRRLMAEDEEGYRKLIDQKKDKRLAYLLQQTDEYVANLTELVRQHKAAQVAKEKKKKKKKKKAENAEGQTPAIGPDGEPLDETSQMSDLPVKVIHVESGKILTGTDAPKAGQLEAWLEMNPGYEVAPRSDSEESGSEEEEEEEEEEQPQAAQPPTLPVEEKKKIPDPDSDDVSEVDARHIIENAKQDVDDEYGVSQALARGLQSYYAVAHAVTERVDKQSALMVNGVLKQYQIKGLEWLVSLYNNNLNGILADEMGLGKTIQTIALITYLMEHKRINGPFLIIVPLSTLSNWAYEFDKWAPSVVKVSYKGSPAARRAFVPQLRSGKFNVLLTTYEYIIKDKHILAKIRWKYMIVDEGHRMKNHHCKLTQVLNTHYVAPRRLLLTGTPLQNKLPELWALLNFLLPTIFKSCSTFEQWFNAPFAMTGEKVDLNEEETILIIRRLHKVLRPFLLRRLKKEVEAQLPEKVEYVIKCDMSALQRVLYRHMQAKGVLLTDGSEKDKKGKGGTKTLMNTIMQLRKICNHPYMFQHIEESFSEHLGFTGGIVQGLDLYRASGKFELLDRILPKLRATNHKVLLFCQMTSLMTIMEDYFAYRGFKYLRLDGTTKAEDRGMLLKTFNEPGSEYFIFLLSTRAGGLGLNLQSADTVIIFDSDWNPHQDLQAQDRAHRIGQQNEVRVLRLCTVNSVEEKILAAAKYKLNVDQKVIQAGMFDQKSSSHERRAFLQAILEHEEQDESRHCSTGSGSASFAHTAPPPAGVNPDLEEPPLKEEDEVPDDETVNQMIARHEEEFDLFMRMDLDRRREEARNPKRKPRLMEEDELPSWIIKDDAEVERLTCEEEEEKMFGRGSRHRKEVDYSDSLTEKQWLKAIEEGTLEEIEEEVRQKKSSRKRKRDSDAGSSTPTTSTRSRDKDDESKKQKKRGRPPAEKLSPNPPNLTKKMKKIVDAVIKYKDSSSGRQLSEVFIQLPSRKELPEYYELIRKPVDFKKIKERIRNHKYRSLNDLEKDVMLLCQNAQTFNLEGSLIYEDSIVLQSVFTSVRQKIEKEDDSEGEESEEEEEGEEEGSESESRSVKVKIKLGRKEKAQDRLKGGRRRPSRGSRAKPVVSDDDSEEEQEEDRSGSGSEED
# procedure text: SMARCA4 Western blot degradation in MV4-11 cells
# Type: cell-based
# test parameters: MV4-11 cells, 24 h; read-out: SMARCA4 MSD MV411 degradation 24 h: Mean external-Abs DC50
Recorded measurements of DC50, one per entry

The measured DC50 associated with C#Cc1ccc(CNC(=O)[C@@H]2C[C@@H](O)CN2C(=O)[C@@H](NC(=O)C2CCC3(CC2)CC(N2CCC(N4CC(C(=O)N5CCN6c7cc(-c8ccccc8O)nnc7NC[C@H]6C5)C4)CC2)C3)C(C)(C)C)cc1 (some centres unmarked) [I-92] reads > 100 nM

The measured DC50 associated with Cc1ncsc1-c1ccc(CNC(=O)[C@@H]2C[C@@H](O)CN2C(=O)C(c2cc(N3CC4(CC(N5CCC(c6cnc(N7CCc8[nH]c9nnc(-c%10ccccc%10O)cc9c8[C@H]7C)nc6)CC5)C4)C3)no2)C(C)C)cc1 (single isomer, unassigned) [I-10] reads 1 to 10 nM

The measured DC50 associated with Cc1ncsc1-c1ccc(CNC(=O)[C@@H]2C[C@@H](O)CN2C(=O)C(c2cc(N3CCC4(CC3)CC(N3CCC(c5cnc(N6CCc7[nH]c8nnc(-c9ccccc9O)cc8c7[C@H]6C)nc5)CC3)C4)no2)C(C)C)cc1 (some centres unmarked) [I-13] reads 10 to 100 nM

The measured DC50 associated with C#Cc1ccc(C2(NC(=O)[C@@H]3C[C@@H](O)CN3C(=O)[C@@H](NC(=O)[C@H]3CC4(C3)C[C@H](N3CCC(N5CCC(N6CCN7c8cc(-c9ccccc9O)nnc8NC[C@H]7C6)CC5)CC3)C4)C(C)(C)C)CC2)cc1 (single isomer, unassigned) [I-211] reads > 100 nM

The measured DC50 associated with C#Cc1ccc(CNC(=O)[C@@H]2C[C@@H](O)CN2C(=O)[C@@H](NC(=O)N2CC3(CC(N4CCC(c5cnc(N6CCc7[nH]c8nnc(-c9ccccc9O)cc8c7[C@H]6C)nc5)CC4)C3)C2)C(C)(C)C)cc1 (single isomer, unassigned) [I-73] reads 10 to 100 nM

Continuing:
The measured DC50 associated with C#Cc1ccc(CNC(=O)[C@@H]2C[C@@H](O)CN2C(=O)[C@@H](NC(=O)N2CC3(CC(N4CCC5(CCN(c6cnc(N7CCc8[nH]c9nnc(-c%10ccccc%10O)cc9c8C7C)nc6)C5)C4)C3)C2)C(C)(C)C)cc1 (some centres unmarked) [I-173] reads > 100 nM

The measured DC50 associated with C#Cc1ccc([C@H](C)NC(=O)[C@@H]2C[C@@H](O)CN2C(=O)[C@@H](NC(=O)N2CC3(CC(N4CCC(c5cnc(N6CCc7[nH]c8nnc(-c9ccccc9O)cc8c7[C@H]6CO)nc5)CC4)C3)C2)C(C)(C)C)cc1 [I-321] reads > 100 nM

The measured DC50 associated with C#Cc1ccc(CNC(=O)[C@@H]2C[C@@H](O)CN2C(=O)[C@H](NC(=O)N2CC3(CC(N4CCC(c5cnc(N6CCc7[nH]c8nnc(-c9ccccc9O)cc8c7[C@H]6C)nc5)CC4)C3)C2)C(C)(C)CCN2CCOCC2)cc1 (single isomer, unassigned) [I-337] reads > 100 nM

###

# measured on: UniProt P51531
# procedure text: SMARCA2 Western blot degradation in MV4-11 cells
# Type: cell-based
# Set-up: SMARCA2/SMARCA4 protein degradation selectivity in MV4-11 cells; endogenous in cells; host or cells: MV4-11
# test parameters: MV4-11, MV4-11 cells, 24 h; read-out: SMARCA2 MSD MV411 degradation 24 h: average Dmax %
endpoint name: Dmax

Take a look at these entries with their results.
The measured Dmax associated with Cc1ncsc1-c1ccc(CNC(=O)[C@@H]2C[C@@H](O)CN2C(=O)[C@@H](NC(=O)N2CC3(CCC(N4CCC(c5cnc(N6CCN7c8cc(-c9ccccc9O)nnc8NC[C@H]7C6)nc5)CC4)CC3)C2)C(C)(C)C)cc1 [I-69] reads > 90%

The measured Dmax associated with Cc1cc(Cl)ccc1C#CCNC(=O)[C@@H]1C[C@@H](O)CN1C(=O)[C@@H](NC(=O)[C@H]1CCC2(CC1)C[C@H](N1CCC(c3cnc(N4CCN5c6cc(-c7ccccc7O)nnc6NC[C@H]5C4)nc3)CC1)C2)C(C)(C)C (single isomer, unassigned) [I-104] reads < 50%

The measured Dmax associated with C#Cc1ccc(CNC(=O)[C@@H]2C[C@@H](O)CN2C(=O)[C@@H](NC(=O)[C@H]2CC[C@H](CN3CCC(c4cnc(N5CCN6c7cc(-c8ccccc8O)nnc7NC[C@H]6C5)nc4)CC3)CC2)C(C)(C)C)cc1 [I-294] reads > 90%

The measured Dmax associated with C#Cc1ccc(CNC(=O)[C@@H]2C[C@@H](O)CN2C(=O)[C@@H](NC(=O)N2CCC(CN3CCC(N4CCc5[nH]c6nnc(-c7ccccc7O)cc6c5[C@H]4C)CC3)CC2)C(C)(C)C)cc1 [I-198] reads 50 to 70%

The measured Dmax associated with Cc1ncsc1-c1ccc(CNC(=O)[C@@H]2C[C@@H](O)CN2C(=O)[C@@H](NC(=O)C2(F)CC2)C(C)(C)C)c(OCCCCN2CCC(c3ccnc(N4CCN5c6cc(-c7ccccc7O)nnc6NC[C@H]5C4)n3)CC2)c1 (single isomer, unassigned) [I-46] reads > 90%

The measured Dmax associated with C#Cc1ccc(CNC(=O)[C@@H]2C[C@@H](O)CN2C(=O)[C@@H](NC(=O)N2CCN(CC3CCN(c4cnc(N5CCc6[nH]c7nnc(-c8ccccc8O)cc7c6[C@H]5C)nc4)CC3)CC2)C(C)(C)C)cc1 [I-159] reads 50 to 70%

The measured Dmax associated with C#Cc1ccc(CNC(=O)[C@@H]2C[C@@H](O)CN2C(=O)[C@H](NC(=O)N2CC3(CC(N4CCC(c5cnc(N6CCc7[nH]c8nnc(-c9ccccc9O)cc8c7[C@H]6C)nc5)CC4)C3)C2)C(C)(C)CCOCC(=O)O)cc1 (single isomer, unassigned) [I-263] reads < 50%

The measured Dmax associated with C#Cc1ccc(CNC(=O)[C@@H]2C[C@@H](O)CN2C(=O)C(c2cc(N3CCC(CN4CCC(N5CCC(N6CCN7c8cc(-c9ccccc9O)nnc8NC[C@H]7C6)CC5)CC4)CC3)no2)C(C)C)c(Cl)c1 (stereo partly drawn) [I-325] reads > 90%

Now examine the next entry.
The measured Dmax associated with C#Cc1ccc(CNC(=O)[C@@H]2C[C@@H](O)CN2C(=O)[C@@H](NC(=O)C2CCC3(CC2)CC(N2CCC(c4cnc(N5CCN6c7cc(-c8ccccc8O)nnc7NC[C@H]6C5)nc4)CC2)C3)C2CCNCC2)cc1 (stereo partly drawn) [I-132] reads < 50%

###

# measured on: SMARCA2 (Homo sapiens)
# Sequence (P51531 whole entry): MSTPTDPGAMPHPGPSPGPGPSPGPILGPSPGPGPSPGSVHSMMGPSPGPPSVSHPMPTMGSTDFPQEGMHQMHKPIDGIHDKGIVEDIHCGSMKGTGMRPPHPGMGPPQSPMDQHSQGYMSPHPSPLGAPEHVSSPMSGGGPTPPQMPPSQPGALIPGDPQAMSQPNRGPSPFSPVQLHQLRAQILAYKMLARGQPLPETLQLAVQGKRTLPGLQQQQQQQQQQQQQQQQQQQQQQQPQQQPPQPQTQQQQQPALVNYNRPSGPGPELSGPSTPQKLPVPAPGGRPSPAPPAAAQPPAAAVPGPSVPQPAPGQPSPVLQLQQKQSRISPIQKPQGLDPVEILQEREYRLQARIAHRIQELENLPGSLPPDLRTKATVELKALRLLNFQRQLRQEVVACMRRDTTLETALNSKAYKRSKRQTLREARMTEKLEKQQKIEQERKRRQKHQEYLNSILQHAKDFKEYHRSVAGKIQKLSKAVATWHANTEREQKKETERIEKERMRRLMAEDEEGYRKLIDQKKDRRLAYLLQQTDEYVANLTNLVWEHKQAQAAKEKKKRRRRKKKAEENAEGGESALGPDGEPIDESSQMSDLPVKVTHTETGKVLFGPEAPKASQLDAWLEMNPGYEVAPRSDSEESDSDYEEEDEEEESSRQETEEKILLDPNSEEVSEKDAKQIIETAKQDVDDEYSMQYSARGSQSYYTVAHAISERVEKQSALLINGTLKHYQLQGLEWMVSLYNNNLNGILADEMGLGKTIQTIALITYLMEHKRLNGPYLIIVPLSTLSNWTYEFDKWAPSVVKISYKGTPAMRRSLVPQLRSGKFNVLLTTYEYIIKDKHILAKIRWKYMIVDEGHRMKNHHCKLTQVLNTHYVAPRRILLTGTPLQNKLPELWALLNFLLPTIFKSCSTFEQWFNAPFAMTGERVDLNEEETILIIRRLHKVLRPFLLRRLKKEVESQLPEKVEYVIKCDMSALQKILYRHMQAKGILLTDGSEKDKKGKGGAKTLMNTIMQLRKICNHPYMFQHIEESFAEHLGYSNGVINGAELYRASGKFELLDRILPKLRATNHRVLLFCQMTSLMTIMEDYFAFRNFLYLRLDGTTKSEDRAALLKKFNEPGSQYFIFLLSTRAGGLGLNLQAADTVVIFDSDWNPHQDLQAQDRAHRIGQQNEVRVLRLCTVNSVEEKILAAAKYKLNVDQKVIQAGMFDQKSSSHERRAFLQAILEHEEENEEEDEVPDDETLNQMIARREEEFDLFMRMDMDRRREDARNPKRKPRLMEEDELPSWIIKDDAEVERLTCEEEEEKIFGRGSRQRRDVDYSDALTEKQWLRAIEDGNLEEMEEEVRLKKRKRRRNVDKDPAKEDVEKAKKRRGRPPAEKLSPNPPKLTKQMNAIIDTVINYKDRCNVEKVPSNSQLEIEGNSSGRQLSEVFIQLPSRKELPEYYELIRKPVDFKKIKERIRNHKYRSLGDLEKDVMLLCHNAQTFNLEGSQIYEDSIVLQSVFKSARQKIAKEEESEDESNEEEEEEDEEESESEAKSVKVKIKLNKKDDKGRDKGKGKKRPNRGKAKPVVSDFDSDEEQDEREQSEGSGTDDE
# procedure text: MSD SMARCA2 degradation in A549 cell line
# Assay type: cell-based
# test parameters: A549, A549 cells, 24 h
endpoint name: Dmax

Take a look at these entries with their results.
# Dmax measured on SMARCA2 (Homo sapiens) for item `C#Cc1ccc(CNC(=O)[C@@H]2C[C@@H](O)CN2C(=O)[C@@H](N(C)C(=O)N2CC3(CC(N4CCC(c5cnc(N6CCc7[nH]c8nnc(-c9ccccc9O)cc8c7[C@H]6C)nc5)CC4)C3)C2)C(C)(C)C)cc1` = < 50%

# Dmax measured on SMARCA2 (Homo sapiens) for item C#Cc1ccc2c(c1)OCC[C@H]2NC(=O)[C@@H]1C[C@@H](O)CN1C(=O)[C@@H](NC(=O)N1CC2(CC(N3CCC(c4cnc(N5CCc6[nH]c7nnc(-c8ccccc8O)cc7c6[C@H]5C)nc4)CC3)C2)C1)C(C)(C)C (single isomer, unassigned) = 70 to 90%

Continuing:
# Dmax measured on SMARCA2 (Homo sapiens) for item C#Cc1ccc([C@H](C)NC(=O)[C@@H]2C[C@@H](O)CN2C(=O)[C@H](c2cc(OCCN3CCC(N4CCC(N5CCC(CN6CCN7c8cc(-c9ccccc9O)nnc8NC[C@H]7C6)CC5)CC4)CC3)no2)C(C)C)cc1 (single isomer, unassigned) = > 90%

# Dmax measured on SMARCA2 (Homo sapiens) for item `C#Cc1ccc([C@H](C)NC(=O)[C@@H]2C[C@@H](O)CN2C(=O)[C@@H](NC(=O)N2CC3(CC(N4CCC(c5cnc(N6CCc7[nH]c8nnc(-c9ccccc9O)cc8c7[C@H]6C)nc5)CC4)C3)C2)C(C)(C)C)c(OC)c1` = > 90%

###

# measured on: UniProt:P51531
# procedure text: MSD SMARCA2 degradation in A549 cell line
# Assay type: cell-based
# test parameters: A549, A549 cells, 24 h
# Protocol: Example 10. MSD SMARCA2 Degradation in A549 Cell Line Cells were seeded into 96-well plates (A549 cells: 2×10^4 cells/well/100 ul media) and incubated overnight. […] The MSD plate was washed three times with 150 uL/well of TBST and 150 ul/well of 2× MSD reading buffer diluted from 4× (MSD, R92TC-2) with water was added. Lastly, the MSD instrument was read. […]
Recorded measurements of Dmax, one per entry

# Dmax measured on UniProt:P51531 for item `C#Cc1cc(F)c(CNC(=O)[C@@H]2C[C@@H](O)CN2C(=O)[C@@H](NC(=O)N2CC3(CC(N4CCC(c5cnc(N6CCc7[nH]c8nnc(-c9ccccc9O)cc8c7[C@H]6C)nc5)CC4)C3)C2)C(C)(C)C)cc1F` = > 90%

# Dmax measured on UniProt:P51531 for item `C#Cc1ccc(CNC(=O)[C@@H]2C[C@@H](O)CN2C(=O)[C@@H](NC(=O)N2CC3(CC(N4CCC(N5CCC(N6CCc7[nH]c8nnc(-c9ccccc9O)cc8c7[C@@H]6C)CC5)CC4)C3)C2)C(C)(C)C)cc1` = > 90%

# Dmax measured on UniProt:P51531 for item `C#Cc1ccc([C@H](CCO)NC(=O)[C@@H]2C[C@@H](O)CN2C(=O)[C@@H](NC(=O)N2CC3(CC(N4CCC(c5cnc(N6CCc7[nH]c8nnc(-c9ccccc9O)cc8c7[C@H]6C)nc5)CC4)C3)C2)C(C)(C)C)cc1` = > 90%

Continuing:
# Dmax measured on UniProt:P51531 for item C#CCOc1cc(C(C(=O)N2C[C@H](O)C[C@H]2C(=O)NCc2ccc(-c3scnc3C)cc2O[C@H]2CC[C@H](N3CCC(c4cnc(N5CCc6[nH]c7nnc(-c8ccccc8O)cc7c6[C@@H]5C)nc4)CC3)CC2)C(C)C)on1 (single isomer, unassigned) = 70 to 90%
